target: DENND5A; experiment: reporter assay of Huesken 2005; conditions: siRNA; note: test concentration or dose not given here
Oligonucleotides are written 5' to 3', each unit as a sugar letter and its base; * is a phosphorothioate linkage, no mark a phosphodiester; rarer units and linkages stand in square brackets, end groups in braces. Plain capitals give the bases only. d = 2'-deoxy (DNA); r = 2'-OH (RNA)
MEASURED_METRIC: normalised inhibition (eCFP-eYFP dual reporter)

Worked examples, 4 substances total:
{"SUBSTANCE": "sense rCrUrCrUrArCrGrUrCrUrCrUrArArGrUrGrCrAdTdT / antisense rUrGrCrArCrUrUrArGrArGrArCrGrUrArGrArGdAdG", "MEASURED_RESULT": "68.3%"}
{"SUBSTANCE": "sense rUrUrCrGrUrGrUrGrCrUrGrCrArGrArCrArUrUdTdT / antisense rArArUrGrUrCrUrGrCrArGrCrArCrArCrGrArAdTdC", "MEASURED_RESULT": "40.2%"}
{"SUBSTANCE": "sense rArGrArGrUrGrCrCrUrCrCrArArGrCrUrGrArAdTdT / antisense rUrUrCrArGrCrUrUrGrGrArGrGrCrArCrUrCrUdCdA", "MEASURED_RESULT": "66.9%"}
{"SUBSTANCE": "sense rArGrGrArCrArArCrCrGrGrCrArGrArGrArArAdTdT / antisense rUrUrUrCrUrCrUrGrCrCrGrGrUrUrGrUrCrCrUdGdA", "MEASURED_RESULT": "67%"}

# query: normalised inhibition (eCFP-eYFP dual reporter) | item sense rUrCrUrCrCrUrGrCrArUrUrUrCrUrUrArGrArUdTdT / antisense rArUrCrUrArArGrArArArUrGrCrArGrGrArGrAdGdA | system: DENND5A 51.3%

API: value(readout= normalised inhibition (eCFP-eYFP dual reporter), system= DENND5A, query= sense rUrGrCrCrCrGrGrCrUrGrCrArArGrCrCrUrUrGdTdT / antisense rCrArArGrGrCrUrUrGrCrArGrCrCrGrGrGrCrAdAdT ) 56.4%
